# Test system: UO-31 renal
# testProtocol: NCI-60 one-dose screen, 48 h
# assaySetup: 10 µM unless noted
The panel holds about 83,000 compounds, 20% with a hit somewhere; the sample as a whole holds those more often. Calls of active or inactive are those of the source. The calls were made as follows: active = growth percent below 10; inactive = the rest.
The categories you may choose from are active, inactive

Before answering, review these 8 worked examples.
Cc1cc(-c2ccc(Cl)cc2)n(Cc2nnc(SCC(=O)Nc3ccc(S(N)(=O)=O)cc3)n2-c2ccc([N+](=O)[O-])cc2)n1 ... inactive
O=C(Nc1ccc2c(ccn2Cc2ccccn2)c1)c1cnccn1 ... inactive
CCCCCCCn1cc2c(N[C@H](C)c3ccccc3)ncnc2n1 ... inactive
NC(N)=Nc1ccc(Oc2ccc(Nc3ccc(Cl)c(C(F)(F)F)c3)cc2)cc1 ... inactive
O=C(CSc1nnc(-c2ccc(Cl)cc2)n1-c1ccccc1)Nc1cccc(Cl)c1 ... inactive
COc1c(N2CC3CCCNC3C2)c(F)cc2c(=O)c(C(=O)N/N=C/c3c[nH]c4ccccc34)cn(C3CC3)c12 (centres undefined) ... inactive
Cc1ccc(-n2cc(/C=N/NC(=O)c3ccncc3)c(-c3ccc(S(C)(=O)=O)cc3)n2)cc1 ... inactive
COc1ccc2c(c1)Oc1nc(N)c(C#N)c(N)c1C2Sc1ccc(C)cc1 (centres undefined) ... active

Continue with the next molecule.
Ask: How did this test come out for `COc1ccccc1NC1=C(Cl)C(=O)c2nc(C)ccc2C1=O` ?
Result: active
